# target of assay: S1R (Rattus norvegicus)
# Construct: liver homogenates (250 μg/sample) from male Sprague Dawley rats; from tissue; host or cells: liver homogenate of male Sprague Dawley rats
# Sequence (Q9R0C9 whole entry): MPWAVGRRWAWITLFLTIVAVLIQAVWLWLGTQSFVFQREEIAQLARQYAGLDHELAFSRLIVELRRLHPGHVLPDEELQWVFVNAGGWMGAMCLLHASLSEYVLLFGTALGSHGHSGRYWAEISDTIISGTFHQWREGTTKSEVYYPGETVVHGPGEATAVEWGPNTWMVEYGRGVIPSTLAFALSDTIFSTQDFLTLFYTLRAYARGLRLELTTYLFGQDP
# assay overview: S1R radioligand binding assay ([3H]-pentazocine, rat liver homogenates)
# study conditions: [3H]-pentazocine 2 nM, rat liver homogenates; mean ± SEM; read-out: Ki S1R
readout kind: pKi
In plain terms, pKi is the concentration in mol/L turned into minus its base-10 logarithm.

Solved cases (2 shown):
>  <compound>
O=C(CCCN1CCCN(Cc2ccccc2)CC1)c1ccc(F)cc1 [4a]

>  <pKi>
7.67

$$$$
>  <compound>
O=C(CCCN1CCc2ccccc2C1)c1ccc(F)cc1 [4b]

>  <pKi>
7.35

$$$$

Exam item: Look up pKi of COc1ccc(CC2CCN(CCCC(=O)c3ccc(F)cc3)CC2)cc1OC [4j] and report it.
Marked response: 8.21
